Test: chemical genetic growth profiling, strain panel (AID 1159580);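 also: tested at 20 µM; growth read once vehicle control cultures reached saturation at 30 °C; 1 = growth at the plate median or of vehicle wells; lower values mean less growth of the strain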
Details: S. cerevisiae deletion strains, growth OD, locus YJL092W, strain hpr5, stronger effect = lower value
Among all 5,500 compounds or so, about 2,000 (36%) were called active. Another 18% or so got no clear call; they are omitted. The list shows a part of the results.
Listing: normalized growth of selected compounds

CC1=CC2C(C(C)C)CCC(C)(O)C2CC1 (stereo not drawn) : 0.996 (inactive)
CCOc1ccc(C(=O)c2cc(O)c(OC)c(OC)c2O)cc1 : 1 (inactive)
CCOc1ccc(NC(C)=O)cc1 : 1.01 (inactive)
CCc1cccc2c3c([nH]c12)C(CC)(CC(=O)O)OCC3 (stereo not drawn) : 0.982 (inactive)

Query: Provide one value: measured normalized growth of "CNS(=O)(=O)c1ccc(NC(=O)c2ccccc2C(=O)O)cc1"
Response: 0.995 (inactive)

Query: Provide one value: measured normalized growth of "NC(=O)NO"
Response: 1.02 (inactive)

Query: Provide one value: measured normalized growth of "NC(N)=NC(N)=Nc1ccccc1"
Response: 1 (inactive)

Query: Provide one value: measured normalized growth of CC(=O)O[C@@H]1CC[C@]2(C)C3CC[C@]4(C)C(=O)CCC4C3CC[C@H]2C1 (stereo partly drawn)
Response: 0.986 (inactive)

* * *

Test: chemical genetic growth profiling, strain panel (AID 1159580);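 also: tested at 20 µM; growth read once vehicle control cultures reached saturation at 30 °C; 1 = growth at the plate median or of vehicle wells; lower values mean less growth of the strain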
Conditions: S. cerevisiae deletion strains, growth OD, locus YMR205C, strain PFK2, stronger effect = lower value
In all, about 5,500 compounds went through this assay and about 2,000 (36%) were called active. Roughly 18% stayed inconclusive and do not appear here. Some of the results follow.
measured-endpoint: normalized growth
Answer field: number only, no words.

CCc1cccc2c3c([nH]c12)C(CC)(CC(=O)O)OCC3 (stereo not drawn) : 0.98
CC(=O)NS(=O)(=O)c1ccc(NC(=O)c2ccccc2C(=O)O)cc1 : 1.02

Read the next record carefully.
Query: Provide one value: measured normalized growth of CC(=O)O[C@H]1CC[C@]2(C)C3CC[C@@]4(C)C(CC5O[C@@]6(CCC(C)CO6)[C@@H](C)C54)C3CC[C@@H]2C1 (stereo partly drawn)
Response: 0.999

* * *

Listing: normalized growth of selected compounds
Assay: chemical genetic growth profiling, strain panel (AID 1159580);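 also: tested at 20 µM; growth read once vehicle control cultures reached saturation at 30 °C; 1 = growth at the plate median or of vehicle wells; lower values mean less growth of the strain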
Details: S. cerevisiae deletion strains, growth OD, locus YMR078C, strain ctf18, stronger effect = lower value
In all, about 5,500 compounds went through this assay and about 2,000 (36%) were called active. About 18% were inconclusive and are not listed. The list shows a part of the results.
Answer field: number only, no words.

Solved cases (8 shown):
COc1cccc(OC)c1C(=O)N[C@@H]1C(=O)N2[C@@H]1SC(C)(C)[C@@H]2C(=O)O : 0.995
C#CC1(O)CCC2C3CCC4=CC(=O)CCC4(C)C3CCC21C (stereo unspecified) : 0.976
Cc1cc(C(C)(C)C)cc(C)c1CC1=NCCN1 : 0.991
COP(=O)(OC)OC(Br)C(Cl)(Cl)Br (stereo unspecified) : 1.02
COc1cnc(NS(=O)(=O)c2ccc(N)cc2)nc1 : 0.976
CC(NCCC(c1ccccc1)c1ccccc1)c1ccccc1 (stereo unspecified) : 0.99
CC(=O)[C@@]1(O)CCC2C3CCC4=CC(=O)CC[C@]4(C)C3CC[C@@]21C (stereo partly specified) : 0.992
NC[C@H]1O[C@H](O[C@H]2[C@H](O)[C@@H](O[C@H]3O[C@H](CO)[C@@H](O)[C@H](N)[C@H]3O)[C@H](N)C[C@@H]2N)[C@H](N)C[C@@H]1O : 1.01

Query: Provide one value: measured normalized growth of "COc1ccc2c(=O)ccoc2c1"
Response: 1.01

Query: Provide one value: measured normalized growth of "COc1c2occc2c(OC)c2c(=O)cc(C)oc12"
Response: 1.02

Query: Provide one value: measured normalized growth of CNC(Cc1c[nH]c2ccccc12)C(=O)O (stereo unspecified)
Response: 0.984

Query: Provide one value: measured normalized growth of "NC(N)=NC(N)=Nc1ccccc1"
Response: 0.998

Query: Provide one value: measured normalized growth of "CN[C@@H]1[C@@H](O[C@H]2O[C@H](CO)[C@@H](N)[C@H](O)[C@H]2O)O[C@H]2C[C@@H](N)[C@H](O[C@H]3[C@H](O)[C@@H](O)[C@H](N)C[C@@H]3N)O[C@@H]2[C@@H]1O"
Response: 1.02

Query: Provide one value: measured normalized growth of "CCOC([O-])=Nc1c[n+](N2CCOCC2)no1"
Response: 0.996

Query: Provide one value: measured normalized growth of "NCCc1c[nH]c2ccccc12"
Response: 0.986

Query: Provide one value: measured normalized growth of "CN(C)CCc1c[nH]c2ccc(CS(=O)(=O)N3CCCC3)cc12"
Response: 0.986

Query: Provide one value: measured normalized growth of "O=C(O)[C@H](O)[C@@](O)(Cc1ccc(O)cc1)C(=O)O"
Response: 0.982

Query: Provide one value: measured normalized growth of Cc1onc(-c2ccccc2)c1C(=O)NC1C(=O)N2[C@@H]1SC(C)(C)[C@@H]2C(=O)O (stereo partly specified)
Response: 1.01

Query: Provide one value: measured normalized growth of "CO[C@@]1(NC(=O)Cc2cccs2)C(=O)N2C(C(=O)O)=C(COC(N)=O)CS[C@@H]21"
Response: 0.993

Query: Provide one value: measured normalized growth of "CCNc1nc(Cl)nc(NCC)n1"
Response: 1.01

Query: Provide one value: measured normalized growth of C1CCC(C(CC2CCCCN2)C2CCCCC2)CC1 (stereo unspecified)
Response: 1.02

Query: Provide one value: measured normalized growth of "O=C(CCc1ccc(O)cc1)c1c(O)cc(O)cc1O[C@@H]1O[C@H](CO)[C@@H](O)[C@H](O)[C@H]1O"
Response: 0.991

Query: Provide one value: measured normalized growth of "CC(=O)Oc1cccc(C(=O)O)c1OC(C)=O"
Response: 1.02

Query: Provide one value: measured normalized growth of "CC[C@@H](CO)NC(=O)[C@@H]1C=C2c3cccc4[nH]cc(c34)C[C@H]2N(C)C1"
Response: 0.996

Query: Provide one value: measured normalized growth of "COc1cc(NS(=O)(=O)c2ccc(N)cc2)ncn1"
Response: 0.981

Query: Provide one value: measured normalized growth of "COc1cc(-c2coc3cc(O[C@@H]4O[C@H](CO)[C@@H](O)[C@H](O)[C@H]4O)c(OC)c(O)c3c2=O)cc(O)c1OC"
Response: 0.981

Query: Provide one value: measured normalized growth of C[C@]12CCC(=O)C=C1CCC1C2[C@@H](O)C[C@@]2(C)C1CC[C@]2(O)C(=O)COC(=O)CCC(=O)O (stereo partly specified)
Response: 1

Query: Provide one value: measured normalized growth of "CC(=O)N[C@@H](Cc1c[nH]c2ccccc12)C(=O)O"
Response: 1.02

Query: Provide one value: measured normalized growth of CC(=O)CC1CCCCN1 (stereo unspecified)
Response: 0.99

Query: Provide one value: measured normalized growth of "c1ccc([C@H]2CN3CCSC3=N2)cc1"
Response: 0.996

Query: Provide one value: measured normalized growth of CC1=CC2C(C(C)C)CCC(C)(O)C2CC1 (stereo unspecified)
Response: 0.981

* * *

Experiment: chemical genetic growth profiling, strain panel (AID 1159580);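 also: tested at 20 µM; growth read once vehicle control cultures reached saturation at 30 °C; 1 = growth at the plate median or of vehicle wells; lower values mean less growth of the strain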
Conditions: S. cerevisiae deletion strains, growth OD, locus YOR184W, strain ser1, stronger effect = lower value
In all, about 5,500 compounds went through this assay and about 2,000 (36%) were called active. Another 18% or so got no clear call; they are omitted. The list shows a part of the results.
measured-endpoint: normalized growth
Answer field: number only, no words.

CC(=O)N[C@@H](Cc1c[nH]c2ccccc12)C(=O)O : 1.02
CCCCc1nc(Cl)c(CO)n1Cc1ccc(-c2ccccc2-c2nn[nH]n2)cc1 : 1
CC[C@H]1OC(=O)[C@H](C)[C@@H](O[C@H]2C[C@@](C)(OC)[C@@H](O)[C@H](C)O2)[C@H](C)[C@@H](O[C@@H]2O[C@H](C)C[C@H](N(C)C)[C@H]2O)[C@](C)(O)C[C@@H](C)[C@@H]2N[C@@H](COCCOC)O[C@H]([C@H]2C)[C@]1(C)O : 1
COc1cccc(OC)c1C(=O)N[C@@H]1C(=O)N2[C@@H]1SC(C)(C)[C@@H]2C(=O)O : 0.996
CC(=O)Oc1cc2c(c(C)c1OC(C)=O)CC1OC13C2(C)CCC1(C)C2CC(C)(C(=O)O)CCC2(C)CCC13C (centres undefined) : 0.994
CC(=O)OCC1=C(C(=O)O)N2C(=O)[C@@H](NC(=O)CCCC(N)C(=O)O)C2SC1 (some centres undefined) : 1.02
O=C1c2ccccc2C(=O)C1c1ccccc1 : 1.02
OCCN1CCN(CCCN2c3ccccc3Sc3ccc(C(F)(F)F)cc32)CC1 : 0.99

Read the next record carefully.
Query: Provide one value: measured normalized growth of CNC(Cc1c[nH]c2ccccc12)C(=O)O (centres undefined)
Response: 0.985
